Organism: Rattus norvegicus
Assay: Toxicity in Sprague-Dawley rat assessed as catalepsy at 10 times MED after 1 to 24 hrs relative to control
Assay type: organism-based
Conditions: in vivo
Exercise: state measured %max for each of the molecules provided.

Could you share which %max value was measured for COc1ccc([C@@]2(O)CCN3C[C@@H]4c5ccccc5CCc5cccc(c54)[C@H]3C2)cc1OC.Cl (racemic) ? 100%

Could you share which %max value was measured for Cc1ccccc1[C@@]1(O)CCN2C[C@@H]3c4ccccc4CCc4cccc(c43)[C@H]2C1.Cl (racemic) ? 61%

Could you share which %max value was measured for COc1ccccc1[C@@]1(O)CCN2C[C@@H]3c4ccccc4CCc4cccc(c43)[C@H]2C1.Cl (racemic) ? 89%

Could you share which %max value was measured for Cl.O[C@]1(c2cccnc2)CCN2C[C@@H]3c4ccccc4CCc4cccc(c43)[C@H]2C1 (racemic) ? 94%

* * *

Species: Rattus norvegicus
Test: Toxicity in Sprague-Dawley rat assessed as catalepsy at 10 times MED after 1 to 24 hrs relative to control
Assay type: organism-based
Conditions: in vivo
Readout: %max

Could you share which %max value was measured for COc1ccc([C@@]2(O)CCN3C[C@@H]4c5ccccc5CCc5cccc(c54)[C@H]3C2)cc1.Cl (racemic) ? 83%

Could you share which %max value was measured for Cl.O[C@]1(c2cccc(F)c2)CCN2C[C@@H]3c4ccccc4CCc4cccc(c43)[C@H]2C1 (racemic) ? 100%

Could you share which %max value was measured for Cl.O[C@]1(c2ccsc2)CCN2C[C@@H]3c4ccccc4CCc4cccc(c43)[C@H]2C1 (racemic) ? 93%

Could you share which %max value was measured for Cl.O[C@]1(c2ccccc2)CCN2C[C@@H]3c4ccccc4CCc4cccc(c43)[C@H]2C1 (racemic) ? 32%

* * *

Exercise: state measured Time for each of the compounds provided.
Organism: Rattus norvegicus
Test: Toxicity in Sprague-Dawley rat assessed as catalepsy at 10 times MED assessed as time required to reach peak effect
Format: organism-based
Settings: in vivo
# number only, unit h dropped from output

Could you share which Time value was measured for Cl.O[C@]1(c2ccccc2)CCN2C[C@@H]3c4ccccc4CCc4cccc(c43)[C@H]2C1 (racemic) ? 6

Could you share which Time value was measured for Cl.O[C@]1(c2ccco2)CCN2C[C@@H]3c4ccccc4CCc4cccc(c43)[C@H]2C1 (racemic) ? 4

Could you share which Time value was measured for Cl.O[C@]1(c2ccc(Br)cc2)CCN2C[C@@H]3c4ccccc4CCc4cccc(c43)[C@H]2C1 (racemic) ? 4

Could you share which Time value was measured for Cl.O[C@]1(c2ccccc2Cl)CCN2C[C@@H]3c4ccccc4CCc4cccc(c43)[C@H]2C1 (racemic) ? 4

Could you share which Time value was measured for COc1cccc([C@@]2(O)CCN3C[C@@H]4c5ccccc5CCc5cccc(c54)[C@H]3C2)c1.Cl (racemic) ? 6

Could you share which Time value was measured for Cl.O[C@]1(c2cccs2)CCN2C[C@@H]3c4ccccc4CCc4cccc(c43)[C@H]2C1 (racemic) ? 6

Could you share which Time value was measured for Cl.O[C@]1(c2ccccc2C(F)(F)F)CCN2C[C@@H]3c4ccccc4CCc4cccc(c43)[C@H]2C1 (racemic) ? 6

Could you share which Time value was measured for COc1ccc([C@@]2(O)CCN3C[C@@H]4c5ccccc5CCc5cccc(c54)[C@H]3C2)cc1OC.Cl (racemic) ? 4

Could you share which Time value was measured for Cc1ccccc1[C@@]1(O)CCN2C[C@@H]3c4ccccc4CCc4cccc(c43)[C@H]2C1.Cl (racemic) ? 4

Could you share which Time value was measured for Cl.O[C@]1(c2cccnc2)CCN2C[C@@H]3c4ccccc4CCc4cccc(c43)[C@H]2C1 (racemic) ? 4

Could you share which Time value was measured for Cl.O[C@]1(c2cccc(F)c2)CCN2C[C@@H]3c4ccccc4CCc4cccc(c43)[C@H]2C1 (racemic) ? 4

* * *

Exercise: state measured %max for each of the compounds provided.
Organism: Rattus norvegicus
Assay: Toxicity in Sprague-Dawley rat assessed as catalepsy at 10 times MED after 1 to 24 hrs relative to control
Type: organism-based
Settings: in vivo
# number only, unit % dropped from output

Could you share which %max value was measured for Cl.O[C@]1(c2ccc(Br)cc2)CCN2C[C@@H]3c4ccccc4CCc4cccc(c43)[C@H]2C1 (racemic) ? 72

Could you share which %max value was measured for Cl.O[C@]1(c2ccco2)CCN2C[C@@H]3c4ccccc4CCc4cccc(c43)[C@H]2C1 (racemic) ? 83

Could you share which %max value was measured for Cl.O[C@]1(c2ccccc2C(F)(F)F)CCN2C[C@@H]3c4ccccc4CCc4cccc(c43)[C@H]2C1 (racemic) ? 100

Could you share which %max value was measured for COc1cccc([C@@]2(O)CCN3C[C@@H]4c5ccccc5CCc5cccc(c54)[C@H]3C2)c1.Cl (racemic) ? 83

Could you share which %max value was measured for COc1ccc([C@@]2(O)CCN3C[C@@H]4c5ccccc5CCc5cccc(c54)[C@H]3C2)c(OC)c1.Cl (racemic) ? 44

Could you share which %max value was measured for Cl.O[C@]1(c2cccs2)CCN2C[C@@H]3c4ccccc4CCc4cccc(c43)[C@H]2C1 (racemic) ? 100

Could you share which %max value was measured for Cl.O[C@]1(c2ccccc2Cl)CCN2C[C@@H]3c4ccccc4CCc4cccc(c43)[C@H]2C1 (racemic) ? 100
